Dear all, this message contains IC50 results, target or system SIK3 (Homo sapiens (Human), UniProt Q9Y2K2).
Use nM as the unit, but write only the number.

Some solved entries appear below for comparison.
NC1CCN(c2cccc3ncc(-n4cnc5cc(OCC6CS(=O)(=O)C6)ccc54)nc23)CC1 :: 6.08
CCn1cc(-c2ccn3c(-c4ccc(-c5noc(C)n5)cc4)cnc3c2)cn1 :: 1090
CC1(COc2ccc3c(c2)ncn3-c2ccc3cccc(N4CC5(CC(N)C5)C4)c3n2)COC1 :: 38.7

Consider the record given below.
Query string: Could you share which IC50 value was measured for Cn1c(CNC(=O)c2ccn3c(-c4ccc(C#N)cc4)cnc3c2)nc2ccccc21 ?
Result string: 861
